Values from patent US20260042834A1

System: T1, N-Terminal CRH (human and mouse, C-terminal K-Biotin)
T1 construct: also called N-Ter-CRH (CT-Bion)
T1 peptide: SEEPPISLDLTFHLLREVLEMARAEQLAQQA
Experimental protocol: ELISA, biotin peptide on streptavidin plate
Readout: EC50 (nM)
Please reply with the bare figure in nM and do not write the unit itself.

# Binder, EC50 [nM]
measured = [
    ("PR005660 (antibody, human IgG1, kappa, V domains shown, PTM-removal variant of PR004290) VH: EVQLVESGGVLVQPGGSLRLSCAASGFTFSSYWMTWVRQAPGKGLEWVANIKQEGSEKYYVDSVKGRFTISRDNAKNSLFLQMNSLRAEDTAVYYCARTLIFDYWGQGTLVTVSS VL: DIVMTQSPLSLPVTPGEPASISCRSSQSLLHSTGYQSLEWYLQKPGQSPQLLIYLGSNRASGVPDRFSGSGSGTDFTLKISRVEAEDVGIYYCMQTLQTPITFGQGTRLEIKR", 0.076),
]

Kindly consider the entry below.
q: Find the recorded EC50 belonging to PR302309-18 (antibody, human IgG1, kappa, V domains shown, Humanized variant of PR302309) VH: QVQLVQSGAEVKKPGASVKVSCKASGYTFTNYGMNWVRQAPGQRLEWMGWINTYTGEPIYTDDFKGRVTITRDTSASTAYMELSSLRSEDTAVYYCARSTMITTGGVFAYWGQGTLVTVSS VL: DVVMTQSPLSLPVTLGQPASISCRSSQTIVHSDGNTYLEWYQQRPGQSPRLLIYKVSNRFSGVPDRFSGSGSGTDFTLKISRVEAEDLGVYYCFQGSHVPWTFGGGTKVEIKR and report it.
a: 0.028
